target: HLA A2.1 molecule (human); experiment: T2 cells, flow cytometry; P1Y variant against its natural peptide
REPORTED ENDPOINT: DC50 Y1-DC50 WT

BINDER	VALUE
YLEEITGYL (modifications not checked) [HER-2/neu 402Y1]	> 2 h
YLDGTATLRL (modifications not checked) [gp100 457Y1]	> 2 h
YLLAVLYCL (modifications not checked) [P1Y variant of Tyrosinase 1]	> 2 h

Next binder, please.
Looking up YLTVILGVL (modifications not checked) [P1Y variant of Mart-1 32] , I found its DC50 Y1-DC50 WT recorded as 2 h

The measured values listed here are drawn from patent US20040072240A1.
